Reported IC50 is given for each of the following molecules.
# target-or-system: beta-catenin-B-cell lymphoma 9 protein complex (Homo sapiens)
# protocol: Inhibition of full length C-terminal 6-His-tagged beta-catenin (1 to 781 residues) (unknown origin) expressed in Escherichia coli BL21 (DE3)-N-terminal biotinylated human BCL9 (350 to 375 residues) protein-protein interaction incubated for 1 hr by Alphascreen assay
Please give a number only; it is taken to be in µM.

Noted for "CC(C)(Oc1cccc(N2CCC[C@@H](C(=O)N(Cc3ccc(-c4cccs4)cc3)C3CC3)C2)c1)C(=O)NS(=O)(=O)c1ccc(C#N)cc1" : its IC50 reads 4.8

More entries:
Noted for CC(C)(Oc1cccc(N2CCCC(C(=O)N(Cc3ccc(-c4cccs4)cc3)C3CC3)C2)c1)C(=O)NS(=O)(=O)C1CC1 (centres undefined) : its IC50 reads 23

Noted for CC(C)c1ccc(CN(C)C(=O)C2CCCN(c3cccc(OC(C)(C)C(=O)O)c3)C2)cc1 (centres undefined) : its IC50 reads 71

Noted for "COc1cccc(S(=O)(=O)NC(=O)C(C)(C)Oc2cccc(N3CCC[C@H](C(=O)N(Cc4ccc(-c5cccs5)cc4)C4CC4)C3)c2)c1" : its IC50 reads 2.9

---

# target-or-system: beta-catenin-B-cell lymphoma 9 protein complex (Homo sapiens)
# protocol: Inhibition of full length C-terminal 6-His-tagged beta-catenin (1 to 781 residues) (unknown origin) expressed in Escherichia coli BL21 (DE3)-N-terminal biotinylated human BCL9 (350 to 375 residues) protein-protein interaction incubated for 1 hr by Alphascreen assay
reported-metric: IC50 (µM)
Please give a number only; it is taken to be in µM.

Solved entries (count: 4):
Noted for CC(C)c1ccc(CCNC(=O)C2CCCN(c3cccc(OC(C)(C)C(=O)O)c3)C2)cc1 (stereo not drawn) : its IC50 reads 92

Noted for CC(C)c1ccc(CNC(=O)C2CCCN(c3cccc(OC(C)(C)C(=O)O)c3)C2)cc1 (stereo not drawn) : its IC50 reads 83

Noted for CC(C)(Oc1cccc(N2CCCC(C(=O)N(Cc3ccc(-c4cccs4)cc3)C3CC3)C2)c1)C(=O)NS(=O)(=O)c1ccccc1 (stereo not drawn) : its IC50 reads 7.7

Noted for CCN(Cc1ccc(C(C)C)cc1)C(=O)C1CCCN(c2cccc(OC(C)(C)C(=O)O)c2)C1 (stereo not drawn) : its IC50 reads 59

# context switch: different molecule, same IC50
Noted for "CC(C)(Oc1cccc(N2CCC[C@H](C(=O)N(Cc3ccc(-c4cccs4)cc3)C3CC3)C2)c1)C(=O)NS(=O)(=O)c1ccc(C#N)cc1" : its IC50 reads 4.4

---

# target-or-system: beta-catenin-B-cell lymphoma 9 protein complex (Homo sapiens, UniProt P35222)
# protocol: Inhibition of full length C-terminal 6-His-tagged beta-catenin (1 to 781 residues) (unknown origin) expressed in Escherichia coli BL21 (DE3)-N-terminal biotinylated human BCL9 (350 to 375 residues) protein-protein interaction incubated for 1 hr by Alphascreen assay
// returns NO unless Ki is strictly below 6 µM, in which case YES

Example cases with answers are listed next.
Task item: Hello, is Ki of the following molecule strictly smaller than 6 µM? CC(C)(C)OC(=O)C(C)(C)Oc1cccc(N2CCCC(C(=O)N(Cc3ccc(-c4cccs4)cc3)C3CC3)C2)c1 (stereo not drawn)
Reply: NO

Task item: Hello, is Ki of the following molecule strictly smaller than 6 µM? Cn1nccc1-c1ccc(CN(C(=O)C2CCCN(c3cccc(OC(C)(C)C(=O)O)c3)C2)C2CC2)cc1 (stereo not drawn)
Reply: NO

Task item: Hello, is Ki of the following molecule strictly smaller than 6 µM? COC(=O)C(C)(C)Oc1cccc(N2CCCC(C(=O)N(Cc3ccc(-c4cccs4)cc3)C3CC3)C2)c1 (stereo not drawn)
Reply: NO

Task item: Hello, is Ki of the following molecule strictly smaller than 6 µM? CCN(Cc1ccc(C(C)C)cc1)C(=O)C1CCCN(c2cccc(OC(C)(C)C(=O)O)c2)C1 (stereo not drawn)
Reply: NO

Task item: Hello, is Ki of the following molecule strictly smaller than 6 µM? CC(C)(Oc1cccc(N2CCCC(C(=O)N(Cc3ccc(-c4ccco4)cc3)C3CC3)C2)c1)C(=O)O (stereo not drawn)
Reply: NO

More entries:
Task item: Hello, is Ki of the following molecule strictly smaller than 6 µM? CC(C)(Oc1cccc(N2CCCC(C(=O)N(Cc3ccc(-c4ccoc4)cc3)C3CC3)C2)c1)C(=O)O (stereo not drawn)
Reply: NO

Task item: Hello, is Ki of the following molecule strictly smaller than 6 µM? CC(C)(Oc1cccc(N2CCCC(C(=O)N(Cc3ccc(-c4cccs4)cc3)C3CC3)C2)c1)C(=O)NS(=O)(=O)c1cccc(C#N)c1 (stereo not drawn)
Reply: YES

Task item: Hello, is Ki of the following molecule strictly smaller than 6 µM? "COc1cccc(S(=O)(=O)NC(=O)C(C)(C)Oc2cccc(N3CCC[C@H](C(=O)N(Cc4ccc(-c5cccs5)cc4)C4CC4)C3)c2)c1"
Reply: YES

Task item: Hello, is Ki of the following molecule strictly smaller than 6 µM? CC(C)(Oc1cccc(N2CCCC(C(=O)N(Cc3ccc(-c4ccn[nH]4)cc3)C3CC3)C2)c1)C(=O)O (stereo not drawn)
Reply: NO

---

Reported pIC50 is given for each of the following molecules.
# target-or-system: beta-catenin-B-cell lymphoma 9 protein complex (Homo sapiens)
# protocol: Inhibition of full length C-terminal 6-His-tagged beta-catenin (1 to 781 residues) (unknown origin) expressed in Escherichia coli BL21 (DE3)-N-terminal biotinylated human BCL9 (350 to 375 residues) protein-protein interaction incubated for 1 hr by Alphascreen assay
Scale for pIC50: -log10 of concentration given in mol/L; no unit attached.

Solved entries (count: 3):
The measured pIC50 that COc1cccc(S(=O)(=O)NC(=O)C(C)(C)Oc2cccc(N3CCCC(C(=O)N(Cc4ccc(-c5cccs5)cc4)C4CC4)C3)c2)c1 (centres undefined) showed for beta-catenin-B-cell lymphoma 9 protein complex (Homo sapiens) is 5.29

The measured pIC50 that CC(C)(Oc1cccc(N2CCCC(C(=O)N(Cc3ccc(-c4cccs4)cc3)C3CC3)C2)c1)C(=O)NS(C)(=O)=O (centres undefined) showed for beta-catenin-B-cell lymphoma 9 protein complex (Homo sapiens) is 4.62

The measured pIC50 that CC(C)c1ccc(CN(C(=O)C2CCCN(c3cccc(OC(C)(C)C(=O)O)c3)C2)C2CC2)cc1 (centres undefined) showed for beta-catenin-B-cell lymphoma 9 protein complex (Homo sapiens) is 4.40

More entries:
The measured pIC50 that COc1ccc(S(=O)(=O)NC(=O)C(C)(C)Oc2cccc(N3CCCC(C(=O)N(Cc4ccc(-c5cccs5)cc4)C4CC4)C3)c2)cc1 (centres undefined) showed for beta-catenin-B-cell lymphoma 9 protein complex (Homo sapiens) is 5.21

---

# target-or-system: beta-catenin-B-cell lymphoma 9 protein complex (Homo sapiens)
# protocol: Inhibition of full length C-terminal 6-His-tagged beta-catenin (1 to 781 residues) (unknown origin) expressed in Escherichia coli BL21 (DE3)-N-terminal biotinylated human BCL9 (350 to 375 residues) protein-protein interaction incubated for 1 hr by Alphascreen assay
reported-metric: IC50 (µM)
Please give a number only; it is taken to be in µM.

Noted for CC(C)(Oc1cccc(N2CCCC(C(=O)N(Cc3ccc(-c4cccs4)cc3)C3CC3)C2)c1)C(=O)O (stereo not given) : its IC50 reads 15

Noted for CC(C)(Oc1cccc(N2CCCC(C(=O)N(Cc3ccc(-c4cccs4)cc3)C3CC3)C2)c1)C(=O)NS(=O)(=O)c1ccc(C#N)cc1 (racemic) : its IC50 reads 4.8

# context switch: different compound, same IC50
Noted for "COc1cccc(S(=O)(=O)NC(=O)C(C)(C)Oc2cccc(N3CCC[C@@H](C(=O)N(Cc4ccc(-c5cccs5)cc4)C4CC4)C3)c2)c1" : its IC50 reads 5.7

---

# protocol: Inhibition of Wnt/beta-catenin transactivation signalling in human SW480 cells harboring wild type tcf4 binding sites incubated for 24 hrs by TOPFlash luciferase assay
# Type: cell-based
Reported IC50 is given for each of the following compounds.
The reply must contain the numeric value and, after it, the unit.

Noted for "CC(C)(Oc1cccc(N2CCC[C@H](C(=O)N(Cc3ccc(-c4cccs4)cc3)C3CC3)C2)c1)C(=O)NS(=O)(=O)c1ccc(C#N)cc1" : its IC50 reads 6.6 µM

# context switch: different compound, same IC50
Noted for "COc1cccc(S(=O)(=O)NC(=O)C(C)(C)Oc2cccc(N3CCC[C@H](C(=O)N(Cc4ccc(-c5cccs5)cc4)C4CC4)C3)c2)c1" : its IC50 reads 7.8 µM

---

# target-or-system: beta-catenin-B-cell lymphoma 9 protein complex (Homo sapiens, UniProt P35222)
# Sequence (P35222 whole entry): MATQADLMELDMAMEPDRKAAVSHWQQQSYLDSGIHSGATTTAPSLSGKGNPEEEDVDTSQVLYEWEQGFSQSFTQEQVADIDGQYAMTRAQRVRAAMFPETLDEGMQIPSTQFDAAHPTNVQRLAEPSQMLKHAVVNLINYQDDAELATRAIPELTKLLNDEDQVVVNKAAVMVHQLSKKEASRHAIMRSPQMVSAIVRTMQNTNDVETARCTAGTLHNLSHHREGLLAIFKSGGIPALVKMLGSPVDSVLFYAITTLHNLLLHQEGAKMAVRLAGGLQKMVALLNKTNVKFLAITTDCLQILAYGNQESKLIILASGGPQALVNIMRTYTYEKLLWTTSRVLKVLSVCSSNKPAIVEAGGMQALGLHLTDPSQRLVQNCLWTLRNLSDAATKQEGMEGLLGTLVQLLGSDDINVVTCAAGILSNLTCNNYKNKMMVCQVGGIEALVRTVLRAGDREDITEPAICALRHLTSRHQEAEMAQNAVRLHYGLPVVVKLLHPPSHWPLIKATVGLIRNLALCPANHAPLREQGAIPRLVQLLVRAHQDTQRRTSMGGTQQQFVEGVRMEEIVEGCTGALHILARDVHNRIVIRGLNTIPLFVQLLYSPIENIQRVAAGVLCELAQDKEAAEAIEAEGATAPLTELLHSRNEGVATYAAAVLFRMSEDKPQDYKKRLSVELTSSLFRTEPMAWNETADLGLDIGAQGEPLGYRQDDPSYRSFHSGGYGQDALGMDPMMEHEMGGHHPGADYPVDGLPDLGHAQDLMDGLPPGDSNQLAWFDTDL
# Sequence (O00512 whole entry): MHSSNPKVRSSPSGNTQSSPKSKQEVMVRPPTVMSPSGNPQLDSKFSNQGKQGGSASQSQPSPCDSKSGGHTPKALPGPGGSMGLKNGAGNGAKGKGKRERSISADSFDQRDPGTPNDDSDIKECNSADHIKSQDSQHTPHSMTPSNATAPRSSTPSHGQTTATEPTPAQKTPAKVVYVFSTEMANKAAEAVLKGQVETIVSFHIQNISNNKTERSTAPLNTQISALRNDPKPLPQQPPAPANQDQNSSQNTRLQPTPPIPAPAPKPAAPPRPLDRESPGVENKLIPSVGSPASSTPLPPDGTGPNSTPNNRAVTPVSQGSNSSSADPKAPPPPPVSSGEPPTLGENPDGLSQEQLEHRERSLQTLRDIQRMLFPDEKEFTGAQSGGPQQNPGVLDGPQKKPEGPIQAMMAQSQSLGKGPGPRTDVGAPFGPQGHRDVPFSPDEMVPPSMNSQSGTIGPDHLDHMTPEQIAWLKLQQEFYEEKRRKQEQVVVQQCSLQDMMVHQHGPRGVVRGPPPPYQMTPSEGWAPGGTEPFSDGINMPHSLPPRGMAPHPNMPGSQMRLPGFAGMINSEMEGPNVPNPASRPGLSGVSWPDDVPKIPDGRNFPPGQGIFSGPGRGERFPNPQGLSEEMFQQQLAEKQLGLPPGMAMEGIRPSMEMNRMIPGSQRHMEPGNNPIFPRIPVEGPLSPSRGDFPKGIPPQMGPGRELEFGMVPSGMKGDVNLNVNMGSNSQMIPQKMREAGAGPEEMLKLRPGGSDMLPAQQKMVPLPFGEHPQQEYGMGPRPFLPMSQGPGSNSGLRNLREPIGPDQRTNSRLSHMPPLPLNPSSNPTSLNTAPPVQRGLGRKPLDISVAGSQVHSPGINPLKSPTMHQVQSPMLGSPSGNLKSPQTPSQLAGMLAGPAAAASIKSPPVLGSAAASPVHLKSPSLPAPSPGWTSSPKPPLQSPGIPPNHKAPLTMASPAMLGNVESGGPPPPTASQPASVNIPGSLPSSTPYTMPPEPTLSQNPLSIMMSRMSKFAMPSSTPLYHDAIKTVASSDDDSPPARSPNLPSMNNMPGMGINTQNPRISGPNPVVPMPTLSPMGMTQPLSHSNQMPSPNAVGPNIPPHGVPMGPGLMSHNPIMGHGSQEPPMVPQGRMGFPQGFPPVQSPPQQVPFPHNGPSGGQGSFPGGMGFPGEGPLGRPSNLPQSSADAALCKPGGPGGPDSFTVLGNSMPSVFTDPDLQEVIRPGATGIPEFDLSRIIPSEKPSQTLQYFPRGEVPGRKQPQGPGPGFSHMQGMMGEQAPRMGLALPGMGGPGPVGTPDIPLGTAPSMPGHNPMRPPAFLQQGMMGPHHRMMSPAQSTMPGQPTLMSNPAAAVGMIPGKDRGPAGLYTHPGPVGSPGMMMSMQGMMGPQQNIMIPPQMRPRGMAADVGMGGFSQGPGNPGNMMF
# protocol: Inhibition of full length C-terminal 6-His-tagged beta-catenin (1 to 781 residues) (unknown origin) expressed in Escherichia coli BL21 (DE3)-N-terminal biotinylated human BCL9 (350 to 375 residues) protein-protein interaction incubated for 1 hr by Alphascreen assay
Reported log10 of IC50 is given for each of the following molecules.
Form field - Quantity: IC50; Unit: µM; Scale: log10

Solved entries (count: 6):
Noted for CC(C)S(=O)(=O)NC(=O)C(C)(C)Oc1cccc(N2CCCC(C(=O)N(Cc3ccc(-c4cccs4)cc3)C3CC3)C2)c1 (stereo not drawn) : its log10 of IC50 reads 1.11

Noted for CC(C)(Oc1cccc(N2CCCC(C(=O)N(Cc3ccc(-c4ccco4)cc3)C3CC3)C2)c1)C(=O)O (stereo not drawn) : its log10 of IC50 reads 1.70

Noted for CC(C)(Oc1cccc(N2CCCC(C(=O)N(Cc3ccc(-c4ccn[nH]4)cc3)C3CC3)C2)c1)C(=O)O (stereo not drawn) : its log10 of IC50 reads 1.86

Noted for CC(C)(Oc1cccc(N2CCCC(C(=O)N(Cc3ccc(-c4ccsc4)cc3)C3CC3)C2)c1)C(=O)O (stereo not drawn) : its log10 of IC50 reads 1.54

Noted for CC(C)c1ccc(CN(C(=O)C2CCCN(c3cccc(OC(C)(C)C(=O)O)c3)C2)C(C)C)cc1 (stereo not drawn) : its log10 of IC50 reads 1.72

Noted for CC(C)(Oc1cccc(N2CCCC(C(=O)N(Cc3ccc(-c4cccs4)cc3)C3CC3)C2)c1)C(=O)NS(=O)(=O)c1cccc(C#N)c1 (stereo not drawn) : its log10 of IC50 reads 0.80

# context switch: different molecule, same log10 of IC50
Noted for CC(C)(Oc1cccc(N2CCCC(C(=O)N(Cc3ccc(-c4cccs4)cc3)C3CC3)C2)c1)C(=O)NS(=O)(=O)c1cccc(O)c1 (stereo not drawn) : its log10 of IC50 reads 0.85
